B1: HDV Ribozyme (parent)
chain: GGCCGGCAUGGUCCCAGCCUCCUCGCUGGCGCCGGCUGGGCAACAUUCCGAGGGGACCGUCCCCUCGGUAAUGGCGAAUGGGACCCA

- Variants of: B1
- method: self-cleavage, relative activity (ratio to wild type); higher = more cleavage; co-transcriptional
parameter: self-cleavage
Lab note: write the figure by itself, no unit.

If you can, please state the reported self-cleavage value of G11C U12C .
0.145

And G1A C14A ?
0.0573

Would you mind doing C62A G73C as well?
0.465

Same for G54A C66G
0.821

What do you have for A8G G52U ?
0.849

Entry G29U G53C please
0.125

Continue with C44G G67U
0.68

Let us now turn to G50U A71G
0.78

Please give the result for U37A U47A too.
0.201
